Reference source for all entries: patent US20260297080A1

- Target or system: CDK2/Cyclin E1 (Homo sapiens, UniProt P24941)
- Method description: CDK2/Cyclin E1 Biochemical Assay (TR-FRET), 0.060 mM ATP
- Condition summary: 0.15 μM Rb (Ser780)-biotin substrate, pH7.0, 60 min preincubation, 120 min reaction, room temperature
Each record here notes measured log10 of IC50.
Friendly reminder: values = log10 of IC50, unit nM.

Past entries and their recorded results:
- [2H]C([2H])([2H])N1Cc2c(ccc(Nc3cc([C@@H]4CC[C@H](OC(=O)NC(C)C)C4)[nH]n3)c2F)S1(=O)=O (single isomer, unassigned) [Example 129b]: 0.41
- O=C(NC1CCC1)O[C@H]1CC[C@@H](c2cc(Nc3ccc4c(c3F)CS(=O)(=O)N4)n[nH]2)C1 (single isomer, unassigned) [Example 399b]: 0.58
- CC[C@H](C)NC(=O)O[C@H]1CC[C@@H](c2cc(Nc3ccc4c(c3F)CS(=O)(=O)N4C3CC3)n[nH]2)C1 (relative stereo) [Example 278]: 0.11

CC(C)NC(=O)OC1CC(c2cc(Nc3ccc4c(c3)CNS4(=O)=O)n[nH]2)C1 (centres unmarked) [Example 173] yielded log10 of IC50 of 0.83

###

- Target or system: CDK1/Cyclin B1 (Homo sapiens, UniProt P06493)
- Sequence (P06493 whole entry): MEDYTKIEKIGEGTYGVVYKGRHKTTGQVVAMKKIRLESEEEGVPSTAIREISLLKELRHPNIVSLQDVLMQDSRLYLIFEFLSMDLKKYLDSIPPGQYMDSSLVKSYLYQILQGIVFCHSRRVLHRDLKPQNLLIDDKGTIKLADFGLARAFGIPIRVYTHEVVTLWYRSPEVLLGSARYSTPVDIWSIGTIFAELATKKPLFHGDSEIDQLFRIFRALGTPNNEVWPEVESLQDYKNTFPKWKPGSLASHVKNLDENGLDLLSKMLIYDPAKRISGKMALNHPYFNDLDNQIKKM
- Sequence (P14635 whole entry partner): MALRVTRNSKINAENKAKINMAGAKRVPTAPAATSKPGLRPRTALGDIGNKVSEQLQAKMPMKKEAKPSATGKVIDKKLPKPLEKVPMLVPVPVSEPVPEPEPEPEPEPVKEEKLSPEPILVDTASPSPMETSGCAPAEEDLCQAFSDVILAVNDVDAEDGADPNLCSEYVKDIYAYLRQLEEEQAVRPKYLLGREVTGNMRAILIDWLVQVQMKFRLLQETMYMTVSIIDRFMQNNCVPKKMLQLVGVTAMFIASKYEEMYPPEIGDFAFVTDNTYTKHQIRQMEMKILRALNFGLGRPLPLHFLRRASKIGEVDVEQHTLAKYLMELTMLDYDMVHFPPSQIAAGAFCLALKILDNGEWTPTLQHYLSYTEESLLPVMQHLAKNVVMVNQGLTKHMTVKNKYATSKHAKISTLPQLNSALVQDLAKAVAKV
- Method description: CDK1/Cyclin B1 Biochemical Assay (TR-FRET), 0.015 mM ATP
- Condition summary: 0.15 μM Rb (Ser780)-biotin substrate, pH7.0, 60 min preincubation, 120 min reaction, room temperature
Each record here notes measured IC50.
# output: bare number, implied unit nM

- CC(C)NC(=O)O[C@H]1CC[C@@H](c2cc(Nc3ccc4c(c3)C(C)NS4(=O)=O)n[nH]2)C1 (single isomer, unassigned) [Example 321a]: 95

CNC(=O)O[C@H]1CC[C@@H](c2cc(Nc3ccc4c(c3F)CNS4(=O)=O)n[nH]2)C1 (relative stereo) yielded IC50 of 1120

CN1c2ccc(Nc3cc([C@@H]4CC[C@H](OC(=O)NC5(C)COC5)C4)[nH]n3)c(F)c2CS1(=O)=O (single isomer, unassigned) [Example 332a] yielded IC50 of 367

CC(C)(C)NC(=O)O[C@@H]1CC[C@H](c2cc(Nc3cc4c(cc3F)NS(=O)(=O)C4)n[nH]2)C1 [Example 404a] yielded IC50 of 717

O=C(NCCC(F)(F)F)O[C@H]1CC[C@@H](c2cc(Nc3ccc4c(c3F)CNS4(=O)=O)n[nH]2)C1 (single isomer, unassigned) [Example 154a] yielded IC50 of 187

###

- Target or system: CDK2/Cyclin E1 (Homo sapiens, UniProt P24941)
- Method description: CDK2/Cyclin E1 Biochemical Assay (TR-FRET), 0.060 mM ATP
- Condition summary: 0.15 μM Rb (Ser780)-biotin substrate, pH7.0, 60 min preincubation, 120 min reaction, room temperature
# note: exactly 4 nM is not below, so it is FALSE; use TRUE for IC50 strictly under it

• CC(C)NC(=O)O[C@H]1CC[C@@H](c2cc(Nc3ccc4c(c3F)CS(=O)(=O)N4C3CC3)n[nH]2)C1 (single isomer, unassigned) [Example 275b] = TRUE
• CC(C)NC(=O)O[C@H]1CC[C@@H](c2cc(Nc3ccc4c(c3)CCS(=O)(=O)N4C)n[nH]2)C1 (relative stereo) [Example 250] = TRUE
• CC(C)NC(=O)O[C@H]1CC[C@@H](c2cc(Nc3cc4c(cc3F)N(CCO)S(=O)(=O)C4)n[nH]2)C1 (single isomer, unassigned) [Example 296b] = FALSE
• [2H]C([2H])([2H])N1c2ccc(Nc3cc([C@@H]4CC[C@H](OC(=O)NC(C)C)C4)[nH]n3)c(F)c2CS1(=O)=O (single isomer, unassigned) [Example 267a] = FALSE

Query string: Item CC(C)NC(=O)O[C@@H]1CC[C@H](c2cc(Nc3ccc4c(c3)S(=O)(=O)CN4C(=O)OC(C)(C)C)n[nH]2)C1 (relative stereo) [Example 318] : IC50 beneath 4 nM, strictly?
Result string: FALSE

Query string: Item CC1(NC(=O)O[C@H]2CC[C@@H](c3cc(Nc4ccc5c(c4F)CNS5(=O)=O)n[nH]3)C2)CCOC1 (single isomer, unassigned) [Example 162d] : IC50 beneath 4 nM, strictly?
Result string: TRUE
